Test system: Staph.aureus 0119
Run Description: Minimum Inhibitory Concentration (MIC), broth dilution method
Format: cell-based
Conditions: Staphylococcus aureus, 0119, Staph.aureus 0119, macrolide resistant clinical isolate (A group), inoculum size 10^6 /ml
Readout Kind: MIC

The cases that follow already have their MIC on record.
compound="CCCC(=O)OC1(C)CC(OC2C(C)OC(OC3C(CC=O)CC(C)C(O)C=CC=CCC(C)OC(=O)CC(O)C3OC)C(O)C2N(C)C)OC(C)C1OC(C)=O (stereo not drawn)" value_reported="> 100 µg/mL"
compound="CCCC(=O)OC1C(C)OC(OC2C(C)OC(OC3C(CC=O)CC(C)C(O)C=CC=CCC(C)OC(=O)CC(O)C3OC)C(O)C2N(C)C)CC1(C)OC(=O)CCC (stereo not drawn)" value_reported="100 µg/mL"
compound="COC1C(OC(C)=O)CC(=O)OC(C)CC=CC=CC(O)C(C)CC(CC=O)C1OC1OC(C)C(OC2CC(C)(O)C(OC(=O)CC(C)C)C(C)O2)C(N(C)C)C1O (stereo not drawn) [LM-A3, Leucomycin A3, reference compound]" value_reported="> 100 µg/mL"
compound="CCCC(=O)OC1C(C)OC(OC2C(C)OC(OC3C(CC=O)CC(C)C(O)C=CC=CCC(C)OC(=O)CC(OC(C)=O)C3OC)C(O)C2N(C)C)CC1(C)OC(C)=O (stereo not drawn)" value_reported="> 100 µg/mL"
compound="CCCC(=O)OC1C(C)OC(OC2C(C)OC(OC3C(CC=O)CC(C)C(O)C=CC=CCC(C)OC(=O)CC(O)C3OC)C(O)C2N(C)C)CC1(C)OC(C)=O (stereo not drawn)" value_reported="100 µg/mL"

Any idea what its MIC is? The compound is CCCC(=O)OC1C(C)OC(OC2C(C)OC(OC3C(CC=O)CC(C)C(O)C=CC=CCC(C)OC(=O)CC(O)C3OC)C(O)C2N(C)C)CC1(C)O (stereo not drawn) [LM-A5, Leucomycin A5, reference compound] > 100 µg/mL
